- System: HIV-2EHO
- assay.details: Drug sensitivity of HIV-2EHO in MT-2 cells, MTT assay
- Format: cell-based
- measurement.context: Human immunodeficiency virus 2, MT2, 168 h, HT-2 (footnote: MT-2 cells), day 7, read-out: MEAN IC50 (μM) ± SDs
endpoint: IC50
Numeric answer plus unit only.

Prompt line: Data request, read-out IC50, for OC[C@@H]1CC[C@H](n2cnc3c(O)ncnc32)O1 [ddI, 2′,3′-dideoxyinosine]
Response line: 2.8 µM

Prompt line: Data request, read-out IC50, for CC(C)c1nc(CN(C)C(=O)N[C@H](C(=O)N[C@@H](Cc2ccccc2)C[C@H](O)[C@H](Cc2ccccc2)NC(=O)OCc2cncs2)C(C)C)cs1 [RTV, Ritonavir]
Response line: 0.35 µM

Prompt line: Data request, read-out IC50, for Cc1cn([C@H]2C[C@H](N=[N+]=[N-])[C@@H](CO)O2)c(=O)[nH]c1=O [AZT, 3′-azido-2′,3′-dideoxythymidine]
Response line: 0.003 µM

Prompt line: Data request, read-out IC50, for CC(C)(C)NC(=O)[C@@H]1C[C@@H]2CCCC[C@@H]2CN1C[C@@H](O)[C@H](Cc1ccccc1)NC(=O)[C@H](CC(N)=O)NC(=O)c1ccc2ccccc2n1 [SQV, Saquinavir]
Response line: 0.004 µM

Prompt line: Data request, read-out IC50, for Cc1c(O)cccc1C(=O)N[C@@H](CSc1ccccc1)[C@H](O)CN1C[C@H]2CCCC[C@H]2C[C@H]1C(=O)NC(C)(C)C [NFV, Nelfinavir]
Response line: 0.02 µM

Prompt line: Data request, read-out IC50, for Nc1ccn([C@@H]2CS[C@H](CO)O2)c(=O)n1 [Compound 3TC, LAMIVUDINE]
Response line: 0.4 µM

Prompt line: Data request, read-out IC50, for CC(C)CN(C[C@@H](O)[C@H](Cc1ccccc1)NC(=O)O[C@H]1CCOC1)S(=O)(=O)c1ccc(N)cc1 [APV, Amprenavir]
Response line: 0.53 µM

Prompt line: Data request, read-out IC50, for CC(C)(C)NC(=O)[C@@H]1CN(Cc2cccnc2)CCN1C[C@@H](O)C[C@@H](Cc1ccccc1)C(=O)N[C@H]1c2ccccc2C[C@H]1O [IDV, Indinavir]
Response line: 0.01 µM

---

Hi there, I'd appreciate the recorded IC50 for every entry that follows.
- System: HIV-1 clinical isolate 1
- assay.details: PI sensitivity of PI-resistant clinical isolate 1 in PHA-PBMC, p24
- Assay type: cell-based
- measurement.context: Human immunodeficiency virus 1; isolate 1: L10I, K14R, L33I, N36I, H46I, F53L, K55R, I62V, L63P, A71V, G73S, V82A, L90M, I93L; PHA-PBMC, p24

Prompt line: Data request, read-out IC50, for CC(C)(C)NC(=O)[C@@H]1CN(Cc2cccnc2)CCN1C[C@@H](O)C[C@@H](Cc1ccccc1)C(=O)N[C@H]1c2ccccc2C[C@H]1O [IDV, Indinavir]
Response line: > 1000 nM

Prompt line: Data request, read-out IC50, for Cc1c(O)cccc1C(=O)N[C@@H](CSc1ccccc1)[C@H](O)CN1C[C@H]2CCCC[C@H]2C[C@H]1C(=O)NC(C)(C)C [NFV, Nelfinavir]
Response line: > 1000 nM

Prompt line: Data request, read-out IC50, for CC(C)CN(C[C@@H](O)[C@H](Cc1ccccc1)NC(=O)O[C@H]1CCOC1)S(=O)(=O)c1ccc(N)cc1 [APV, Amprenavir]
Response line: 270 nM

Prompt line: Data request, read-out IC50, for CC(C)c1nc(CN(C)C(=O)N[C@H](C(=O)N[C@@H](Cc2ccccc2)C[C@H](O)[C@H](Cc2ccccc2)NC(=O)OCc2cncs2)C(C)C)cs1 [RTV, Ritonavir]
Response line: > 1000 nM

Prompt line: Data request, read-out IC50, for CC(C)(C)NC(=O)[C@@H]1C[C@@H]2CCCC[C@@H]2CN1C[C@@H](O)[C@H](Cc1ccccc1)NC(=O)[C@H](CC(N)=O)NC(=O)c1ccc2ccccc2n1 [SQV, Saquinavir]
Response line: 270 nM
